assay target: T1, hFc-human LIGHT (human)
T1 construct: also called hFc-huLIGHT
assay summary: competition ELISA, LTβR-His coated, hFc-huLIGHT added
pIC50: −log10 of the molar value.
binders and their reported pIC50
readout type: pIC50

| binder | readout type | recorded result |
| --- | --- | --- |
| hum_LT-m37-5 (antibody, human IgG4, V domains shown, humanized from LT-m37) VH: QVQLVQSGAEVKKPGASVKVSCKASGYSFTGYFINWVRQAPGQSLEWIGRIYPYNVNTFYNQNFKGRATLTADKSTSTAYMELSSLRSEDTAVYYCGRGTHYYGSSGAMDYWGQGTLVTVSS VL: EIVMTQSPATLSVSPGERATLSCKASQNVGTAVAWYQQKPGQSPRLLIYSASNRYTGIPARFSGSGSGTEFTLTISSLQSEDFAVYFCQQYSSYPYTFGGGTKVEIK | pIC50 | 10.11 |
| hum_LT-m37-4 (antibody, human IgG4, V domains shown, humanized from LT-m37) VH: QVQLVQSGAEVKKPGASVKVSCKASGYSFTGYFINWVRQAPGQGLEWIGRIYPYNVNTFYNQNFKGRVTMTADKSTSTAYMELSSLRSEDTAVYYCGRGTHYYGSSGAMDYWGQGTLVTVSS VL: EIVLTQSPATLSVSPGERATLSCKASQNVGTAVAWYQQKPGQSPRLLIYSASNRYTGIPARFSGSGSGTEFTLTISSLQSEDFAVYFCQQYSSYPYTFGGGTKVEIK | pIC50 | 10.13 |
| hum_LT-m37-12 (antibody, human IgG4, V domains shown, humanized from LT-m37) VH: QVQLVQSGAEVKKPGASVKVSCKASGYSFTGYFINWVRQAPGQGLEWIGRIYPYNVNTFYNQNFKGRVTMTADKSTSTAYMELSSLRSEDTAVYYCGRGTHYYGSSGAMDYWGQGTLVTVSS VL: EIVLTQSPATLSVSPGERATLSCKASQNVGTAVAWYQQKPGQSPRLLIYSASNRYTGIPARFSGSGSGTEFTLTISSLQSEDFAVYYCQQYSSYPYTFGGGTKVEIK | pIC50 | 10.11 |
